Would you mind telling me the reported TGI of each entry?
# Test system: MDA-MB-435
# testMethodNotes: NCI tumour cell line growth inhibition, 48 h

[in] Reported TGI, molecule O=C1CSC(c2ccccc2O)N1c1ccc(-c2ccc(-n3c(-c4ccccc4)nc4ccccc4c3=O)cc2)cc1 (stereo unspecified) : ____
[out] > 100 µM

[in] Reported TGI, molecule O=C(/C=C/c1cc2ccccc2[nH]c1=O)c1ccc(Cl)cc1 : ____
[out] > 50.8 µM

[in] Reported TGI, molecule COc1ccc2c(c1)C(N)=C(c1ccccc1OC)C2=O : ____
[out] > 100 µM

[in] Reported TGI, molecule CC(/C=N/N(C)C1=NCCCN1)=N/N(C)C1=NCCCN1 : ____
[out] > 100 µM

[in] Reported TGI, molecule CC(=O)OC1CC2CC(=O)CC1N2C (stereo unspecified) : ____
[out] > 100 µM

[in] Reported TGI, molecule N#Cc1c(-c2ccc(Cl)cc2)csc1NC(=O)Nc1ccc(Cl)c(C(F)(F)F)c1 : ____
[out] > 50 µM

[in] Reported TGI, molecule N#C/C(C(=O)Nc1ccccc1)=C(/N)N1CCCC1 : ____
[out] > 100 µM

[in] Reported TGI, molecule COc1ccc(N2C(=O)C3c4[nH]c5ccccc5c4C4CCC(c5ccccc5)CC4C3C2=O)cc1 (stereo unspecified) : ____
[out] > 100 µM

[in] Reported TGI, molecule NCCc1c[nH]c2ccc(OC(=O)C(=O)O)cc12 : ____
[out] > 100 µM

[in] Reported TGI, molecule CN(/N=C(\C(=O)O)c1ccccc1)C1=NCCCCN1 : ____
[out] > 100 µM

[in] Reported TGI, molecule COc1ccc2c3c1O[C@H]1[C@@H](O)CC[C@@]4(O)[C@@H](C2)N(C)CC[C@]314 : ____
[out] > 100 µM

---

# Tested on: NCI/ADR-RES ovarian
# testMethodNotes: NCI tumour cell line growth inhibition, 48 h
Would you mind telling me the reported TGI of each entry?

[in] Reported TGI, molecule C(=N\c1nc2cc3sc(/N=C/c4cccs4)nc3cc2s1)/c1cccs1 : ____
[out] > 100 µM

[in] Reported TGI, molecule COc1cc(/C=C/C(=O)Oc2ccc(NC(C)=O)cc2)ccc1C(=O)OCc1ccccc1 : ____
[out] > 100 µM

[in] Reported TGI, molecule NS(=O)(=O)c1ccc(N=Cc2c(O)[nH]c3ccc4ncsc4c23)cc1 : ____
[out] > 25 µM

[in] Reported TGI, molecule COc1ccc2c(c1)C(N)=C(c1ccccc1OC)C2=O : ____
[out] > 100 µM

[in] Reported TGI, molecule CC(CCOc1c2ccoc2cc2oc(=O)ccc12)C1=CC(=O)C(C)(C)O1 (stereo not drawn) : ____
[out] > 100 µM

[in] Reported TGI, molecule C[n+]1c2ccccc2n2c3ccccc3c(NCCCN3CCOCC3)c(C#N)c21 : ____
[out] > 76.8 µM

[in] Reported TGI, molecule O=C(Nc1cccc(-n2ccc3c(NC(=O)c4ccccc4)nccc32)c1)Nc1ccc(Cl)c(C(F)(F)F)c1 : ____
[out] 0.667 µM

[in] Reported TGI, molecule Cn1c(C(O)C2(c3cccnc3)SCCCS2)cc2ccccc21 (stereo not drawn) : ____
[out] > 100 µM

[in] Reported TGI, molecule O=[N+]([O-])c1ccc(C(Br)c2ccc([N+](=O)[O-])cc2)cc1 : ____
[out] 6.82 µM

[in] Reported TGI, molecule O=C(Nc1ccc(-n2cc(-c3ccncc3)c(-c3ccc(O)c(Cl)c3)n2)cc1)c1cc(C(F)(F)F)cc(C(F)(F)F)c1 : ____
[out] > 25 µM

[in] Reported TGI, molecule CCCCC(=O)OC[n+]1cccc(-c2c(COC(=O)NC(C)C)c(COC(=O)NC(C)C)c3n2CCC3)c1 : ____
[out] > 100 µM

[in] Reported TGI, molecule COc1cccc(/C=C/c2ccc(S(N)(=O)=O)cc2)c1 : ____
[out] > 100 µM

[in] Reported TGI, molecule CN(/N=C(\C(=O)O)c1ccccc1)C1=NCCCCN1 : ____
[out] > 100 µM
